Tested on: Escherichia coli
EXPERIMENT_NOTES: minimum inhibitory concentration (MIC)
TEST_CONDITIONS: isolate (source animal id): 139

>  <STRUCTURE_AS_SMILES>
C=C[C@]1(C)C[C@@H](OC(=O)CSCCN(CC)CC)[C@]2(C)[C@H](C)CC[C@]3(CCC(=O)[C@H]32)[C@@H](C)[C@@H]1O

>  <TARGET_DESC>
Escherichia coli

>  <minimum inhibitory concentration>
> 32 µg/mL

$$$$
>  <STRUCTURE_AS_SMILES>
COc1cc(Cc2cnc(N)nc2N)cc(OC)c1OC.Cc1cc(NS(=O)(=O)c2ccc(N)cc2)no1

>  <TARGET_DESC>
Escherichia coli

>  <minimum inhibitory concentration>
> 2 µg/mL

$$$$
>  <STRUCTURE_AS_SMILES>
CN(C)[C@@H]1C(O)=C(C(N)=O)C(=O)[C@@]2(O)C(O)=C3C(=O)c4c(O)cccc4[C@@](C)(O)[C@H]3C[C@@H]12

>  <TARGET_DESC>
Escherichia coli

>  <minimum inhibitory concentration>
> 8 µg/mL

$$$$
